# run description: Aqueous solubility by solvent addition, visual assessment
# Type: physicochemical
# applied conditions: thermodynamic from solid, water, calculated from total solvent used
assay readout: solubility

Given item CN(C)CCc1c[nH]c2ccccc12 [Form I, N,N-dimethyltryptamine] , the value recorded as its solubility is < 1000 µg/mL
